- measurement target: UniProtKB Q13547
- Sequence (Q13547 whole entry): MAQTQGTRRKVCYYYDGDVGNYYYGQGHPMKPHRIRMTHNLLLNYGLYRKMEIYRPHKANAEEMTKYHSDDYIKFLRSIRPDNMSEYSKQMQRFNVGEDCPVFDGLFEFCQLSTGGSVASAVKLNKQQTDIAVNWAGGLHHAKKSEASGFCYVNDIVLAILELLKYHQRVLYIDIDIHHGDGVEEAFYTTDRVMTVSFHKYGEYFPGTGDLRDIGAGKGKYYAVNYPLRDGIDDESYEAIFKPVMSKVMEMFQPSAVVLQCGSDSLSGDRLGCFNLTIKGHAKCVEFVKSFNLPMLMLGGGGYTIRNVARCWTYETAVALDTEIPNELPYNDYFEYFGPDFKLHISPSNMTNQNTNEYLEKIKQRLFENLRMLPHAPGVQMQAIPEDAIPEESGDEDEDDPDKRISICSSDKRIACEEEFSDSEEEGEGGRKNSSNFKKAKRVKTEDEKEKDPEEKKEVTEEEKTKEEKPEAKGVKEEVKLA
- protocol: Inhibition of recombinant human His-tagged HDAC1 expressed in insect cells preincubated for 10 mins followed by addition of FLUOR DE LYS as fluorescent substrate measured after 1 hr by spectrophotometry
pIC50: −log10 of the molar value.
Tick criterion met if pIC50 is 6 or greater. Tick criterion not met if pIC50 is less than 6.

Illustrative cases are given below, each with its answer.
>>> class("CNC(=O)CCCCC[C@H](NC(=O)c1cncs1)c1ncc(-c2cc3ccccc3[nH]c2=O)[nH]1")
"criterion not met"
>>> class("CNC(=O)CCCCC[C@H](NC(=O)c1cncs1)c1ncc(-c2ccc(-c3ccccc3)cc2)[nH]1")
"criterion not met"
>>> class("CNC(=O)CCCCC[C@H](NC(=O)c1cncs1)c1ncc(-c2ccc3[nH]cnc3c2)[nH]1")
"criterion not met"

Hi team, for `CNC(=O)CCCCC[C@H](NC(=O)c1cncs1)c1ncc(-c2ccc3ccnc(OC)c3c2)[nH]1` , is the recorded pIC50 at or above 6?
criterion not met

// inclusive: pIC50 at least 6? input: `CNC(=O)CCCCC[C@H](NC(=O)c1cncs1)c1ncc(-c2ccc3ccccc3c2)[nH]1`
criterion met

// inclusive: pIC50 at least 6? input: `CNC(=O)CCCCC[C@H](NC(=O)c1cncs1)c1ncc(-c2ccc(-n3cccn3)cc2)[nH]1`
criterion not met

# bool: pIC50 of `CNC(=O)CCCCC[C@H](NC(=O)c1cncs1)c1ncc(-c2ccc3[nH]ncc3c2)[nH]1` >= 6
criterion not met

Answer whether pIC50 of `CNC(=O)CCCCC[C@H](NC(=O)Cn1ccnn1)c1ncc(-c2cc3ccccc3nc2OC)[nH]1` is greater than or equal to 6.
criterion not met

Does pIC50 meet or surpass 6 for `CCC(=O)CCCCC[C@H](NC(=O)C12CCN(CC1)CC2)c1ncc(-c2ccc3ccccc3c2)[nH]1` ?
criterion met
